B1: KRT15 (parent)
chain: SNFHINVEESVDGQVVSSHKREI

# Variants of: B1
# assay.name: protein stability index of a GFP-peptide fusion (GPS, HEK-293T) (PSI 1-6); higher = more stable;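 further: lentivirally expressed fusions sorted by FACS into six bins by GFP to DsRed ratio, PSI derived from sequencing read proportions per bin multiplied by bin number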
# test.settings: c terminus: native
Catalogue of protein stability index values
When you answer, write just the number.

>  <biosequence>
SNFHINVEESVDGLVVSSHKREI [Q14L]

>  <protein stability index>
1.65

$$$$

Requested read-out: protein stability index. Entry: SNFHIKVEESVDGQVVSSHKREI [N6K]
1.78

Requested read-out: protein stability index. Entry: SNFHINVEESVDGQVASSHKREI [V16A]
2.19

Requested read-out: protein stability index. Entry: SNFHINHEESVDGQVVSSHKREI [V7H]
2.11
